study-system: S. glaucescens His6-KASIII (Streptomyces glaucescens, UniProt Q54206)
Construct: His6 (N); made in house; host or cells: Escherichia coli BL21 (DE3 pLysE)/pLH14
procedure-details: KASIII TCA precipitation assay
Type: biochemical
test-settings: TCA precipitation assay; inhibitor preincubated with enzyme 15 minutes at 23° C.
measure: IC50 (µM)
Numbers only here, please. The scale is µM.

Incoming: Give a short answer stating reported IC50 for NC(=O)CI [iodoacetamide, Iodoacetamide, reference compound] .
Outgoing: 25

====

study-system: UniProt:P0A6R0
Sequence (P0A6R0 whole entry): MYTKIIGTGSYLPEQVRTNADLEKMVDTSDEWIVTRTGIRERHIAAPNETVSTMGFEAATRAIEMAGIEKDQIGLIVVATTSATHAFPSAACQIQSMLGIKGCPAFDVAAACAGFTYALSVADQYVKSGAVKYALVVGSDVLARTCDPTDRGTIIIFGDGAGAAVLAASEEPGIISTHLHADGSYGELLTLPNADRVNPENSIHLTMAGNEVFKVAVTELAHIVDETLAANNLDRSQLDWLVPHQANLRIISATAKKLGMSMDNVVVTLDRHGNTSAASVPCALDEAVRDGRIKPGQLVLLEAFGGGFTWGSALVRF
procedure-details: KASIII TCA precipitation assay
Type: biochemical
measure: IC50 (µM)
Give the quantity in µM, number only.

Incoming: Provide IC50 value for the following compound: C=C/C(C)=C/[C@@]1(C)SC(=O)C(C)=C1O [thiolactomycin]
Outgoing: 160

====

study-system: S. glaucescens His6-KASIII (Streptomyces glaucescens, UniProt Q54206)
Construct: His6 (N); made in house; host or cells: Escherichia coli BL21 (DE3 pLysE)/pLH14
Sequence (Q54206 1-333): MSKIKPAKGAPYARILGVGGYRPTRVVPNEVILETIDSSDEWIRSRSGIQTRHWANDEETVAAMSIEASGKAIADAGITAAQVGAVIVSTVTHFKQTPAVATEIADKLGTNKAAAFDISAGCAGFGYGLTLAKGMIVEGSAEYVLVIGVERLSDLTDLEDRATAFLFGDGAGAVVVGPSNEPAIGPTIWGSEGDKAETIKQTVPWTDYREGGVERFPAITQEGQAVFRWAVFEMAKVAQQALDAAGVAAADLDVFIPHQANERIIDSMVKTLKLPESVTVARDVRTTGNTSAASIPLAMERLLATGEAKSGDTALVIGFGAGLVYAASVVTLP
procedure-details: KASIII scintillation proximity assay (SPA)
Type: biochemical
measure: pIC50
// pIC50 is dimensionless: -log10 of concentration (M)

Incoming: Hello, please tell me recorded pIC50 for this one: NC(=O)CI [iodoacetamide, Iodoacetamide, reference compound]
Outgoing: 4.82
